- tested.system: human recombinant JAK2 protein (Homo sapiens, UniProt O60674)
- Construct: purchased Carna Biosciences 08-045
- Sequence (O60674 826-1132 limits assumed): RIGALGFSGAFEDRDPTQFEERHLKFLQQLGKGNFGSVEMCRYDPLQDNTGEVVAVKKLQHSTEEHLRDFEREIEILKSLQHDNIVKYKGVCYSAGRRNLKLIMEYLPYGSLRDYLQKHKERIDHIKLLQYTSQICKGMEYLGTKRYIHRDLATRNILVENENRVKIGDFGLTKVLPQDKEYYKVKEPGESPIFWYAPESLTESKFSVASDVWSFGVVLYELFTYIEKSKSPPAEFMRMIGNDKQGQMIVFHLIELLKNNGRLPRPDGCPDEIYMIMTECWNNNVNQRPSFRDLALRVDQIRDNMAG
- assay.details: JAK2 Inhibition Assay (HTRF kinase assay)
- Assay type: biochemical
- condition.info: human recombinant JAK2, 2.5 μM ATP substrate solution
Rule: IC50 below 9 nM gives condition met, anything at or above gives condition not met.

Does this compound meet the criterion IC50 < 9 nM? Cc1cnc(Nc2cnn(C)c2)nc1N1C[C@@H]2CN(Cc3ccno3)C[C@]2(C)C1 (racemic) [Compound 73]
condition met

Does this compound meet the criterion IC50 < 9 nM? Cn1cc(Nc2ncc(Cl)c(N3C[C@]4(C)CN(C(=O)CC#N)C[C@]4(C)C3)n2)cn1 [Compound 20]
condition met

Does this compound meet the criterion IC50 < 9 nM? Cn1cc(Nc2ncc(C#N)c(N3C[C@]4(C)CN(C(=O)C5CC5)C[C@]4(C)C3)n2)cn1 [Compound 15]
condition not met

Does this compound meet the criterion IC50 < 9 nM? CNC(=O)c1ccc(Nc2ncc(Cl)c(N3C[C@]4(C)CN(C(=O)C5CC5)C[C@]4(C)C3)n2)cn1 [Compound 51]
condition met

Does this compound meet the criterion IC50 < 9 nM? [2H]C([2H])([2H])n1cc(Nc2ncc(Cl)c(N3C[C@@H]4CN(C(=O)CC#N)C[C@]4(C)C3)n2)cn1 [Compound 99]
condition met

Does this compound meet the criterion IC50 < 9 nM? CCNC(=O)c1ccc(Nc2ncc(F)c(N3C[C@]4(C)CN(C(=O)C5CC5(F)F)C[C@]4(C)C3)n2)cc1 (stereo partly shown) [Compound 10]
condition not met

----------
- tested.system: human recombinant TYK2 protein (Homo sapiens)
- Construct: purchased Carna Biosciences 08-147
- Sequence (P29597 871-1187 limits assumed): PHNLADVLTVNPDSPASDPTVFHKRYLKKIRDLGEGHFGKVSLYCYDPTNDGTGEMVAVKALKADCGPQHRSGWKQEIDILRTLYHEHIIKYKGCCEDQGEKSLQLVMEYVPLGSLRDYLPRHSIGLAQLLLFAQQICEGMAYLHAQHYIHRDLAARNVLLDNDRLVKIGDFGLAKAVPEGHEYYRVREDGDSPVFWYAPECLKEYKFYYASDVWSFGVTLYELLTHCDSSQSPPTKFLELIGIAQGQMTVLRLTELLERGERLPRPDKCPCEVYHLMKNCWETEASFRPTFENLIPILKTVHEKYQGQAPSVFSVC
- assay.details: TYK2 Inhibition Assay (HTRF kinase assay)
- Assay type: biochemical
- condition.info: human recombinant TYK2, 11.25 μM ATP substrate solution
Give measured log10(IC50) for each item. Keep answers brief.
Values below are the log10 of the recorded IC50, with nM as the unit.

What measured log10(IC50) goes with Cn1cc(Nc2ncc(Cl)c(N3C[C@H]4CN(C(=O)CC#N)C[C@H]4C3)n2)cn1 ?
0.79

What measured log10(IC50) goes with Cn1cc(Nc2ncc(Cl)c(N3C[C@]4(C)CN(c5ccccn5)C[C@]4(C)C3)n2)cn1 ?
-0.70

What measured log10(IC50) goes with Cn1cc(Nc2ncc(Cl)c(N3C[C@H]4CN(C(=O)C5CC5)C[C@@]4(C)C3)n2)cn1 (racemic) ?
-0.22

What measured log10(IC50) goes with C[C@@]12CN(C(=O)C3CC3)C[C@]1(C)CN(c1nc(Nc3cnn(CC#N)c3)ncc1Cl)C2 ?
0.46

What measured log10(IC50) goes with Cn1cc(Nc2ncc(Cl)c(N3C[C@@H]4CN(C(=O)C5CC5(F)F)C[C@]4(C)C3)n2)cn1 (mixture of isomers) ?
-0.30

What measured log10(IC50) goes with Cn1cc(Nc2ncc(Cl)c(N3C[C@H]4CN(C(=O)[C@@H]5CC5(F)F)C[C@@]4(C)C3)n2)cn1 ?
0.51

What measured log10(IC50) goes with Cn1cc(Nc2ncc(Cl)c(N3C[C@]4(C)CN(C(=O)C5CC5)C[C@]4(C)C3)n2)cn1 ?
0.04

----------
- tested.system: human recombinant TYK2 protein (Homo sapiens)
- Construct: purchased Carna Biosciences 08-147
- assay.details: TYK2 Inhibition Assay (HTRF kinase assay)
- Format: biochemical
- condition.info: human recombinant TYK2, 11.25 μM ATP substrate solution
Give measured IC50 for each item. Keep answers brief.
Field: numeric (nM). Do not append units.

What measured IC50 goes with Cn1cc(Nc2ncc(Cl)c(N3C[C@]4(C)CN(C(=O)C5(C#N)CC5)C[C@]4(C)C3)n2)cn1 [Compound 42] ?
5.7

What measured IC50 goes with Cn1cc(Nc2ncc(Cl)c(N3C[C@]4(C)CN(C(=O)c5ccccn5)C[C@]4(C)C3)n2)cn1 [Compound 47] ?
13

What measured IC50 goes with Cn1cc(Nc2ncc(Cl)c(N3C[C@@H]4CN(C(=O)CC#N)C[C@]4(C)C3)n2)cn1 [Compound 88] ?
0.2

What measured IC50 goes with Cn1ccc(Nc2ncc(Cl)c(N3C[C@]4(C)CN(C(=O)C5CC5)C[C@]4(C)C3)n2)n1 [Compound 94] ?
224

----------
Give measured log10 IC50 for each item. Keep answers brief.
- System: IL-12-induced IFN-γ secretion in NK92 cells
- assay.details: Inhibition of IL-12-induced IFN-γ Secretion in NK92 Cells (ELISA)
- Assay type: cell-based, human
- condition.info: Homo sapiens, 24 hours incubation, 8 concentration points, read-out: IC50 (NK92_IL12/IFNγ)
Values below are the log10 of the recorded IC50, with nM as the unit.

What measured log10 IC50 goes with Cn1cc(Nc2ncc(Cl)c(N3C[C@]4(C)CN(CC#N)C[C@]4(C)C3)n2)cn1 ?
3.73

What measured log10 IC50 goes with C[C@@]12CN(C(=O)CC#N)C[C@]1(C)CN(c1nc(Nc3cn[nH]c3)ncc1Cl)C2 ?
3.34

What measured log10 IC50 goes with CNC(=O)c1ccc(Nc2ncc(Cl)c(N3C[C@]4(C)CN(C(=O)C5CC5)C[C@]4(C)C3)n2)cn1 ?
2.78

What measured log10 IC50 goes with Cn1cc(Nc2ncc(Cl)c(N3C[C@]4(C)CN(c5ccno5)C[C@]4(C)C3)n2)cn1 ?
1.82

What measured log10 IC50 goes with Cn1cc(Nc2ncc(Cl)c(N3C[C@]4(C)CN(Cc5ccno5)C[C@]4(C)C3)n2)cn1 ?
1.63

What measured log10 IC50 goes with COCC(=O)N1C[C@@]2(C)CN(c3nc(Nc4cnn(C)c4)ncc3Cl)C[C@@]2(C)C1 ?
3.32

What measured log10 IC50 goes with Cn1cc(Nc2ncc(Cl)c(N3C[C@]4(C)CN(C(=O)[C@H]5CC5(F)F)C[C@]4(C)C3)n2)cn1 ?
2.69

What measured log10 IC50 goes with Cn1cc(Nc2ncc(Cl)c(N3C[C@]4(C)CN(C(=O)CO)C[C@]4(C)C3)n2)cn1 ?
2.66

What measured log10 IC50 goes with C[C@@]12CN(C(=O)[C@@H]3CC3(F)F)C[C@]1(C)CN(c1nc(Nc3cn[nH]c3)ncc1Cl)C2 ?
2.58

What measured log10 IC50 goes with Cc1noc(CN2C[C@@]3(C)CN(c4nc(Nc5cnn(C)c5)ncc4Cl)C[C@@]3(C)C2)n1 ?
3.46

What measured log10 IC50 goes with Cn1cc(Nc2ncc(Cl)c(N3C[C@@H]4CN(C(=O)[C@@H]5CC5(F)F)C[C@]4(C)C3)n2)cn1 ?
1.98

What measured log10 IC50 goes with CCS(=O)(=O)N1C[C@]2(C)CN(c3nc(Nc4cnn(C)c4)ncc3Cl)C[C@]2(C)C1 ?
2.80

What measured log10 IC50 goes with Cn1cc(Nc2ncc(Cl)c(N3C[C@H]4CN(C(=O)C5CC5)C[C@@]4(C)C3)n2)cn1 ?
2.98

----------
- tested.system: human recombinant TYK2 protein (Homo sapiens, UniProt P29597)
- Construct: purchased Carna Biosciences 08-147
- assay.details: TYK2 Inhibition Assay (HTRF kinase assay)
- Type: biochemical
- condition.info: human recombinant TYK2, 11.25 μM ATP substrate solution
measure: IC50 (nM)
Field: numeric (nM). Do not append units.

What measured IC50 goes with Cn1cc(Nc2nccc(N3C[C@]4(C)CN(C(=O)C(F)(F)F)C[C@]4(C)C3)n2)cn1 ?
49

What measured IC50 goes with Cn1cc(Nc2ncc(Cl)c(N3C[C@@]4(C)CN(S(C)(=O)=O)C[C@@]4(C)C3)n2)cn1 ?
0.6

What measured IC50 goes with Cn1cc(Nc2ncc(Cl)c(N3C[C@H]4CN(C(=O)[C@@H]5CC5(F)F)C[C@H]4C3)n2)cn1 ?
16

What measured IC50 goes with Cn1cc(Nc2ncc(Cl)c(N3C[C@@H]4CN(C(=O)[C@@H]5CC5(F)F)C[C@]4(C)C3)n2)cn1 ?
0.1

What measured IC50 goes with C[C@@]12CN(C(=O)CC#N)C[C@]1(C)CN(c1nc(Nc3cn[nH]c3)ncc1Cl)C2 ?
0.2

What measured IC50 goes with CCS(=O)(=O)N1C[C@]2(C)CN(c3nc(Nc4cnn(C)c4)ncc3Cl)C[C@]2(C)C1 ?
1.3

What measured IC50 goes with Cc1cc(Nc2ncc(Cl)c(N3C[C@]4(C)CN(C(=O)C5CC5)C[C@]4(C)C3)n2)no1 ?
158
